Tested on: P70S6K (Thr389) phosphorylation (mTORC1) in MDA-MB-468 cells
Test: Cell based AlphaLISA assay, mTOR kinase cellular assay: inhibition of p-P70S6K (T389) in MDA-MB-468 cells
Conditions: Homo sapiens, read-out: pIC50 for Inhibition of mTORC1 and mTORC2 Substarte Phosphorylation p-P70S6K-(T389) (converted)
This section presents compounds with their documented IC50 values.

CO[C@H]1C[C@@H]2CC[C@@H](C)[C@@](O)(O2)C(=O)C(=O)N2CCCC[C@H]2C(=O)O[C@H]([C@H](C)C[C@@H]2CC[C@@H](OC(=O)NCc3cnc(N4CCN(c5ncc(C(=O)NCCOCCOCCOCCOCCC(=O)N6CCc7cc(Cn8nc(-c9cnc%10[nH]ccc%10c9)c9c(N)ncnc98)ccc7C6)c(N)n5)CC4)nc3)[C@H](OC)C2)CC(=O)[C@H](C)/C=C(\C)[C@@H](O)[C@@H](OC)C(=O)[C@H](C)C[C@H](C)/C=C/C=C/C=C/1C	1 to 10 nM

Next:
Ask: Missing value: IC50, P70S6K (Thr389) phosphorylation (mTORC1) in MDA-MB-468 cells, entry CO[C@H]1C[C@@H]2CC[C@@H](C)[C@@](O)(O2)C(=O)C(=O)N2CCCC[C@H]2C(=O)O[C@H]([C@H](C)C[C@@H]2CC[C@@H](OC(=S)NCc3cnc(N4CCN(C(=O)CCOCCN5CCN(c6ncc(C(=O)N7CCc8cc(Cn9nc(-c%10ccc%11oc(N)nc%11c%10)c%10c(N)ncnc%109)ccc8C7)cn6)CC5)CC4)nc3)[C@H](OC)C2)C[C@@H](O)[C@H](C)/C=C(\C)[C@@H](O)[C@@H](OC)C(=O)[C@H](C)C[C@H](C)/C=C/C=C/C=C/1C . Fill in?
Result: ≤ 1 nM

###

This section presents molecules with their documented pIC50 values.
Molecular target: NRAS G12C (Homo sapiens, UniProt P01111+P62937, G12C)
Sequence (P01111 whole entry G12C): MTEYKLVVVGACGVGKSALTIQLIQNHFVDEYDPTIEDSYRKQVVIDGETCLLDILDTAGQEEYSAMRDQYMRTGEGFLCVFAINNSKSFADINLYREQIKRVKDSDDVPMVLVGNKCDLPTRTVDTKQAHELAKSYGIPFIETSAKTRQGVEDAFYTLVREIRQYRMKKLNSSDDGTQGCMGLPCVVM
Sequence (P62937 whole entry): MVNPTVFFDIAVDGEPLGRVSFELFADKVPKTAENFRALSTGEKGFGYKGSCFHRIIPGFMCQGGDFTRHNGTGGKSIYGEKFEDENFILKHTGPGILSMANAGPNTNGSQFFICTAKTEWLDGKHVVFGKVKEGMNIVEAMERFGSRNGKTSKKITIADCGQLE
Test: Disruption of BRAF RBD interaction with Ras (FRET / MOA assay, with Cyclophilin A)
Assay type: biochemical
Details: NRAS G12C; read-out: NRAS G12C FRET data IC50
pIC50: −log10 of the molar value.

Ask: State the recorded pIC50 for this entry: CCn1c(-c2cccnc2[C@H](C)OC)c2c3cc(ccc31)-c1csc(n1)C[C@H](NC(=O)[C@H](C(C)C)N(C)C(=O)N1CCCC[C@@H](N(C)C)C1)C(=O)N1CCC[C@H](N1)C(=O)OCC(C)(C)C2 [Example A492]
Result: 6.00 to 7.00

Ask: State the recorded pIC50 for this entry: C=CC(=O)N1CC2[C@@H](C1)CN2C(=O)N(C)[C@H](C(=O)N[C@H]1Cc2nc(cs2)-c2ccc3c(c2)c(c(-c2cccnc2[C@H](C)OC)n3CC)CC(C)(C)COC(=O)[C@@H]2CCCN(N2)C1=O)C(C)C (some centres unmarked) [Example A686]
Result: 7.00 to 8.00

###

Target: KRAS G12S (Homo sapiens, UniProt P01116+P62937, G12S)
Sequence (P01116 1-169 isoform P01116-2 G12S limits assumed): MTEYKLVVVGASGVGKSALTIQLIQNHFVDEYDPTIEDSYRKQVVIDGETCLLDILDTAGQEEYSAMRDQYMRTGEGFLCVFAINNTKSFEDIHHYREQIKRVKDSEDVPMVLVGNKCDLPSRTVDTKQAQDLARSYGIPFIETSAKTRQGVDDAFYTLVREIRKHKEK
Sequence (P62937 whole entry): as the sequence (P62937 whole entry) above
Assay: Ras-Raf disruption / FRET / MOA assay (BRAF RBD)
Assay type: biochemical
Conditions: Ras-Raf disruption, with Cyclophilin A; read-out: KRAS G12S FRET data IC50
pIC50: −log10 of the molar value.
This section presents compounds with their documented pIC50 values.

Examples from the recorded data:
CCn1c(-c2cccnc2[C@H](C)OC)c2c3cc(ccc31)-c1cc(O)cc(c1)C[C@H](NC(=O)[C@H](C(C)C)N(C)C(=O)[C@H]1C[C@H](NC(=O)[C@H]3CN3)C1)C(=O)N1CCC[C@H](N1)C(=O)OCC(C)(C)C2 [Example 182]	7.00 to 8.00
CCn1c(-c2cccnc2[C@H](C)OC)c2c3cc(ccc31)-c1cc(O)cc(c1)C[C@H](NC(=O)[C@H](C(C)C)N(C)C(=O)[C@@]1(F)CCN(C(=O)[C@@H]3CN3)C1)C(=O)N1CCC[C@H](N1)C(=O)OCC(C)(C)C2 (atropisomer, axis not shown) [Example 185]	6.00 to 7.00
CCn1c(-c2cccnc2[C@H](C)OC)c2c3cc(ccc31)-c1csc(n1)C[C@H](NC(=O)[C@H](C(C)C)N(C)C(=O)N(C)CCN(C)C(=O)[C@@H]1CN1)C(=O)N1CCC[C@H](N1)C(=O)OCC(C)(C)C2 (atropisomer, axis not shown) [Example 217]	6.00 to 7.00

Ask: State the recorded pIC50 for this entry: CCn1c(-c2cccnc2[C@H](C)OC)c2c3cc(ccc31)-c1cc(O)cc(c1)C[C@H](NC(=O)[C@H](C(C)C)N(C)C(=O)[C@H]1CCN(C(=O)C3OC3c3ccccc3)C1)C(=O)N1CCC[C@H](N1)C(=O)OCC(C)(C)C2 (stereo partly shown) [Example 331]
Result: 7.00 to 8.00
